test system: Bovine brain tubulin; experiment: Inhibition of [3H]colchicine binding to tubulin; conditions: tubulin 0.5 µM, [3H]colchicine 5 µM, compound 5 µM
Entries annotated with measured Colchicine Binding % Inhibition ± SD
QUANTITY_KIND: Colchicine Binding % Inhibition ± SD (%)

{"columns": ["COMPOUND", "SYSTEM_UNDER_TEST", "QUANTITY_KIND", "MEASUREMENT"],
 "data": [
  ["Cc1cc(Nc2ccc(Br)cc2)n2nc(NCCCc3ccccc3)nc2n1", "Bovine brain tubulin", "Colchicine Binding % Inhibition ± SD", 84],
  ["COc1cc(Nc2cc(C)nc3nc(NCCCc4ccccc4)nn23)cc(OC)c1OC", "Bovine brain tubulin", "Colchicine Binding % Inhibition ± SD", 55],
  ["Cc1cc(Nc2ccc(F)cc2)n2nc(NCCCc3ccccc3)nc2n1", "Bovine brain tubulin", "Colchicine Binding % Inhibition ± SD", 88],
  ["COc1ccc(/C=C\\c2cc(OC)c(OC)c(OC)c2)cc1O [CA-4, combretastatin A-4, reference compound]", "Bovine brain tubulin", "Colchicine Binding % Inhibition ± SD", 97],
  ["COc1cc(Nc2cc(C)nc3nc(NCc4ccc(Cl)cc4)nn23)cc(OC)c1OC", "Bovine brain tubulin", "Colchicine Binding % Inhibition ± SD", 30],
  ["COc1cc(Nc2cc(C)nc3nc(NCc4ccc(C)cc4)nn23)cc(OC)c1OC", "Bovine brain tubulin", "Colchicine Binding % Inhibition ± SD", 27],
  ["C#Cc1cccc(Nc2cc(C)nc3nc(NCCCc4ccccc4)nn23)c1", "Bovine brain tubulin", "Colchicine Binding % Inhibition ± SD", 70],
  ["Cc1cc(Nc2ccc(Cl)cc2)n2nc(NCCCc3ccccc3)nc2n1", "Bovine brain tubulin", "Colchicine Binding % Inhibition ± SD", 88],
  ["COc1cc(Nc2cc(C)nc3nc(NCc4ccc5c(c4)OCO5)nn23)cc(OC)c1OC", "Bovine brain tubulin", "Colchicine Binding % Inhibition ± SD", 19],
  ["Cc1cc(Nc2ccc(F)c(Cl)c2)n2nc(NCCCc3ccccc3)nc2n1", "Bovine brain tubulin", "Colchicine Binding % Inhibition ± SD", 87]
]}

---

test system: HeLa; experiment: Antiproliferative assay (resazurin, 72 h); format: cell-based, human; conditions: Table 1, mean ± SE

{"columns": ["SMILES_STRING", "SYSTEM_UNDER_TEST", "UOM", "IC50"],
 "data": [
  ["COc1cc(Nc2cc(C)nc3nc(NCCCc4ccccc4)nn23)cc(OC)c1OC", "HeLa", "nM", 67]
]}

---

test system: A549, MDA-MB-231, HeLa, HT-29 and Jurkat cancer cell lines; test: Antiproliferative activity over the panel of cancer cell lines; type: cell-based, human; conditions: Homo sapiens, against three of the five lines (not A549, HT-29); read-out: IC50's, range

{"columns": ["MOLECULE", "SYSTEM_UNDER_TEST", "IC50"],
 "data": [
  ["COc1ccc(/C=C\\c2cc(OC)c(OC)c(OC)c2)cc1O [CA-4, combretastatin A-4, reference compound]", "A549, MDA-MB-231, HeLa, HT-29 and Jurkat cancer cell lines", "1 to 5 nM"]
]}

---

Entries annotated with measured pIC50
system: PBL stimulated with PHA; assay: Cytotoxicity in human PBLs stimulated with PHA; assay type: cell-based; details: Homo sapiens, 72 h, read-out: IC50 PBLPHA
pIC50: −log10 of the molar value.

{"columns": ["COMPOUND", "RELATIONAL_OPERATOR", "pIC50"],
 "data": [
  ["Cc1cc(Nc2ccc(F)c(Cl)c2)n2nc(NCCCc3ccccc3)nc2n1", "<", 5.00],
  ["COc1ccc(/C=C\\c2cc(OC)c(OC)c(OC)c2)cc1O [CA-4, combretastatin A-4, reference compound]", "=", 7.73]
]}
